Where do these numbers come from? They come from patent US8278304B2.

- study_system: PHD2 (Homo sapiens)
- Construct: FLAG-tagged full length PHD2 expressed in and purified from baculovirus-infected Sf9 cells; FLAG; made in house; host or cells: baculovirus-infected Sf9 cells
- measurement_notes: PHD2 / HIF-1α peptide hydroxylation assay, time resolved fluorescence (VHL complex detection)
- Assay type: biochemical
- test_conditions: FLAG-tagged full length PHD2; 0.2 μM 2-oxoglutarate, 0.5 μM HIF-1α peptide; read-out: PHD2 Activity (PHD2 binding activity expressed as IC50 (nM))
IC50 values for the compounds below.

> print(dat)
                                   compound  experimental.result
1  COc1ccc(C(NC(=O)c2cnc(-c3cccnn3)nc2O)c2ccc(OC)nc2)cc1 (single isomer, unassigned) [Example 190]              ≤ 10 nM
2  O=C(N[C@H](c1ccccc1)[C@H](O)c1ccccc1)c1cnc(-n2cccn2)nc1O              ≤ 10 nM
3  COc1ccc(C(NC(=O)c2cnc(-c3cccnn3)nc2O)c2ccc(F)cc2)c(OC)n1 (stereo not shown)              ≤ 10 nM

Form: compound = `COc1ccc(C(NC(=O)c2cnc(-c3cccnn3)nc2O)c2ccc(OC)cc2C)c(C)c1` ; IC50 = ≤ 10 nM

###

- study_system: PHD2 (Homo sapiens, UniProt Q9GZT9)
- Construct: FLAG-tagged full length PHD2 expressed in and purified from baculovirus-infected Sf9 cells; FLAG; made in house; host or cells: baculovirus-infected Sf9 cells
- Sequence (Q9GZT9 whole entry): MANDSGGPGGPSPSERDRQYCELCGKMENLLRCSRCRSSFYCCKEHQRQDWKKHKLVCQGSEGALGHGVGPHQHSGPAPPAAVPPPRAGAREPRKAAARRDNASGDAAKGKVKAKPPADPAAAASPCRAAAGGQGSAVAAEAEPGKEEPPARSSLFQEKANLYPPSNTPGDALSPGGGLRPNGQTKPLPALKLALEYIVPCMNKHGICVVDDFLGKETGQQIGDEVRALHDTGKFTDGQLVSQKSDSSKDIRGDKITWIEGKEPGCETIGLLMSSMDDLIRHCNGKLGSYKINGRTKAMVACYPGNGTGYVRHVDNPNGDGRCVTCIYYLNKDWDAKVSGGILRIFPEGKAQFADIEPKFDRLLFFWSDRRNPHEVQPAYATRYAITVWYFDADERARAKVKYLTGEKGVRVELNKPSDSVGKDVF
- measurement_notes: PHD2 / HIF-1α peptide hydroxylation assay, time resolved fluorescence (VHL complex detection)
- Type: biochemical
- test_conditions: FLAG-tagged full length PHD2; 0.2 μM 2-oxoglutarate, 0.5 μM HIF-1α peptide; read-out: PHD2 Activity (PHD2 binding activity expressed as IC50 (nM))
IC50 values by entry

Previously resolved entries follow.
> print(dat)
                                   compound  experimental.result
1  CC(C)(NC(=O)c1cnc(-c2cnccn2)nc1O)c1ccccc1         10 to 100 nM
2  Cc1ccc([C@@H](C)NC(=O)c2cnc(-n3cccn3)nc2O)cc1         10 to 100 nM
3  Cc1nc(-c2ncc(C(=O)NCc3ccc(-c4ccccc4)cc3)c(O)n2)cs1         10 to 100 nM

Note to self: IC50 of `CCC(CC)(NC(=O)c1cnc(-n2cccn2)nc1O)c1ccccc1` with PHD2 (Homo sapiens, UniProt Q9GZT9) was ≤ 10 nM

// IC50 (PHD2 (Homo sapiens, UniProt Q9GZT9)) for COc1ccc(C(NC(=O)c2cnc(-c3cccnn3)nc2O)c2ccc(OC(F)(F)F)cc2)cc1 (single isomer, unassigned) = ≤ 10 nM

###

- study_system: PHD2 (Homo sapiens)
- Construct: FLAG-tagged full length PHD2 expressed in and purified from baculovirus-infected Sf9 cells; FLAG; made in house; host or cells: baculovirus-infected Sf9 cells
- measurement_notes: PHD2 / HIF-1α peptide hydroxylation assay, time resolved fluorescence (VHL complex detection)
- Type: biochemical
- test_conditions: FLAG-tagged full length PHD2; 0.2 μM 2-oxoglutarate, 0.5 μM HIF-1α peptide; read-out: PHD2 Activity (PHD2 binding activity expressed as IC50 (nM))
- Description: To each well of a 96-well plate was added 1 μL of test compound in DMSO and 20 μl of assay buffer (50 mM Tris pH 7.4/0.01% Tween-20/0.1 mg/ml bovine serum albumin/10 μM ferrous sulfate/1 mM sodium ascorbate/20 μg/ml catalase) containing 0.15 μg/ml FLAG-tagged full length PHD2 expressed in and purified from baculovirus-infected Sf9 cells. […]
Recorded measurements of IC50, one per entry

Example entries and their recorded answers appear below.
> print(dat)
                                   molecule  measured.parameter  experimental.result
1  COCc1ccc(C(NC(=O)c2cnc(-c3cccnn3)nc2O)c2ccc(OC)cc2)cc1 (racemic) [Example 181]                IC50              ≤ 10 nM
2  Cc1nc(-c2ncc(C(=O)NC(c3ccccc3)c3ccccc3)c(O)n2)cs1 [Example 39]                IC50         10 to 100 nM
3  O=C(NC(c1ccccc1)c1ccc(C(F)(F)F)nc1)c1cnc(-n2cccn2)nc1O (single isomer, unassigned) [Example 142]                IC50              ≤ 10 nM

Here's the next entry for you.
Note to self: IC50 of O=C(N[C@@H](CO)c1ccccc1)c1cnc(-n2cccn2)nc1O [Example 123] with PHD2 (Homo sapiens) was ≤ 10 nM
